tested on: RPMI-8226 leukemia; test: NCI tumour cell line growth inhibition, 48 h
parameter.measured: TGI

molecule: CC(=O)NC(CCCNCc1ccccc1)C(=O)NCc1ccccc1 (stereo not given)
parameter.measured: TGI
experimental.value: > 100 µM
//
molecule: COC(=O)CCC1CCc2c(OC)ccc(O)c2C1=O (stereo not given)
parameter.measured: TGI
experimental.value: > 100 µM
//
molecule: CNS(=O)(=O)NN(C)S(=O)(=O)c1ccc(F)cc1
parameter.measured: TGI
experimental.value: > 100 µM
//
molecule: Cc1ccc(S(=O)(=O)Oc2cc(N)c3c(n2)CCC3)cc1
parameter.measured: TGI
experimental.value: > 100 µM
//
molecule: Cc1ccc(S(=O)(=O)N2CCSCCSCCSCCSCC2)cc1
parameter.measured: TGI
experimental.value: > 100 µM
//
molecule: CCCCN1CCN(c2ccc3nc(-c4ccc5nc(-c6ccc(C(F)(F)F)cc6)[nH]c5c4)[nH]c3c2)CC1
parameter.measured: TGI
experimental.value: 0.475 µM
//
molecule: COc1cc(Cl)cc(-c2nn(C(=O)NCCN3CCOCC3)cc2-c2ccncc2)c1
parameter.measured: TGI
experimental.value: > 100 µM
//
molecule: O=C(O)[C@@H]1C[C@@H](O)CN1C(=O)OCc1ccccc1
parameter.measured: TGI
experimental.value: > 100 µM
//
molecule: O=c1c2ncn(C3CC(O)C(CO)O3)c2nnn1Cc1ccccc1[N+](=O)[O-] (stereo not given)
parameter.measured: TGI
experimental.value: > 100 µM
//
molecule: Nn1c(CCCCCCCCc2nnc(COc3c(O)ccc4ccccc34)n2N)nnc1COc1c(O)ccc2ccccc12
parameter.measured: TGI
experimental.value: > 100 µM

----------
test system: NCI-H522 lung; assay: NCI tumour cell line growth inhibition, 48 h
Quick reference for TGI among some molecules

molecule: CCCCCCCCCc1cc(=O)c2ccc(OCc3ccccc3)cc2o1
readout.qualifier: >
TGI (µM): 100

molecule: Cc1cc(N(CCC#N)S(=O)(=O)c2ccccc2)ccc1/C=C1N=C(/C=C/c2ccccc2)OC\1=O
readout.qualifier: >
TGI (µM): 100

molecule: CN(C)C(CN)CC1=C(CC(CN)N(C)C)CCC1 (stereo not drawn)
readout.qualifier: >
TGI (µM): 100

molecule: N#Cc1cnc2cc(OC[C@H](O)CO)c(NC(=O)CC3CSSC3)cc2c1Nc1ccc(OCc2cccc(F)c2)c(Cl)c1
readout.qualifier: =
TGI (µM): 1.59

molecule: CCC(C(=O)O)c1ccc(OCc2ccccc2)cc1 (stereo not drawn)
readout.qualifier: >
TGI (µM): 100

molecule: CCCC[C@H](NC(=O)[C@H]1CCCN1C)C(=O)N(C)[C@H](C[C@@H](OC(C)=O)c1nc(C(=O)N[C@@H](Cc2ccccc2)C[C@H](C)C(=O)OCC)cs1)C(C)C
readout.qualifier: =
TGI (µM): 0.0143

molecule: C=C(Cl)/C(=C\Cl)CCC(Br)C(C)C (stereo not drawn)
readout.qualifier: =
TGI (µM): 39.9

molecule: O=C(NC(Cc1c[nH]c2ccccc12)C(=O)O)/C(=C/c1ccccc1O)NC(=O)c1ccccc1 (stereo not drawn)
readout.qualifier: >
TGI (µM): 100

molecule: COC(=O)/C=C/C=C(c1ccccc1)c1ccccc1
readout.qualifier: =
TGI (µM): 78.1

molecule: CC1=NOC(=O)/C1=C/c1ccccc1O
readout.qualifier: >
TGI (µM): 100

molecule: N#Cc1nc(-c2cc([N+](=O)[O-])cc([N+](=O)[O-])c2)oc1N
readout.qualifier: >
TGI (µM): 10

molecule: O=C(O)c1ccc([Se][Se]c2ccc(C(=O)O)cc2)cc1
readout.qualifier: =
TGI (µM): 52

molecule: CN1CCN(CCc2cccc(C(=O)c3cnn(-c4ccc(F)cc4)c3N)c2)CC1
readout.qualifier: >
TGI (µM): 25

molecule: CN(C)S(=O)(=O)c1ccc(NC(=O)COC(=O)c2ccc(S(=O)(=O)N3CCCCC3)cc2)cc1
readout.qualifier: >
TGI (µM): 100

molecule: CCCCCCCCCCCCOC(=S)NCCCC
readout.qualifier: =
TGI (µM): 36.5

molecule: CC(C)=CCc1c2c(c3occ(-c4ccc(O)c(O)c4)c(=O)c3c1O)C=CC(C)(C)O2
readout.qualifier: =
TGI (µM): 0.458

molecule: CCN(Cc1ccc(F)c(F)c1)c1ccc(CO)c(Cl)c1
readout.qualifier: =
TGI (µM): 30.2

molecule: CN(C)c1nc(=NCc2ccncc2)ss1
readout.qualifier: >
TGI (µM): 100

----------
tested on: OVCAR-4 ovarian; experiment: NCI tumour cell line growth inhibition, 48 h
parameter.measured: TGI (µM)

compound: COc1cc(C2c3cc4c(cc3[C@@H](Nc3ccc(C#N)cc3)C3COC(=O)[C@H]23)OCO4)cc(OC)c1O (stereo partly drawn)
target.of.assay: OVCAR-4 ovarian
readout.qualifier: =
experimental.value: 19.2
//
compound: Nc1c(C(=O)Nc2cccc([N+](=O)[O-])c2)sc2nc3c(cc12)C(O)CCC3 (stereo not drawn)
target.of.assay: OVCAR-4 ovarian
readout.qualifier: >
experimental.value: 100
//
compound: CC1=NOC(=O)/C1=C/c1ccccc1O
target.of.assay: OVCAR-4 ovarian
readout.qualifier: >
experimental.value: 100
//
compound: O=C1c2ccccc2-c2c1c1ccccc1c(=O)n2CCCNCCCNCCCn1c2c(c3ccccc3c1=O)C(=O)c1ccccc1-2
target.of.assay: OVCAR-4 ovarian
readout.qualifier: =
experimental.value: 1.02
//
compound: COc1cc2c(cc1OCCCCOc1cc(-c3ccc(F)cc3)nc(C)n1)N=C[C@@H]1CCCN1C2=O
target.of.assay: OVCAR-4 ovarian
readout.qualifier: =
experimental.value: 2.3
//
compound: Cc1[c-]onc1C.Cc1[c-]onc1C.[Ag].[Ag].[NH-]S(=O)(=O)c1ccc(N=Nc2cc(N=Nc3ccc(S([NH-])(=O)=O)cc3)c3c(NC(=O)C(Cl)Cl)cccc3c2OC(=O)C(Cl)Cl)cc1
target.of.assay: OVCAR-4 ovarian
readout.qualifier: =
experimental.value: 15.1
//
compound: CC(=O)OC(C)c1cc2c(s1)C(=O)c1sccc1C2=O (stereo not drawn)
target.of.assay: OVCAR-4 ovarian
readout.qualifier: =
experimental.value: 3.5
//
compound: O=C1OC(=O)C(c2c[nH]c3ccccc23)=C1c1c[nH]c2ccccc12
target.of.assay: OVCAR-4 ovarian
readout.qualifier: >
experimental.value: 25

----------
system: SF-295 CNS; experiment: NCI tumour cell line growth inhibition, 48 h; in the data active = GI50 below about 0.43 µM; inactive = the rest
Outcomes: true = active, false = inactive

compound: C=CCc1c2c(c(OC)c3ccoc13)C(=O)/C(=C/c1ccccc1OC)O2
label.class: false
--
compound: COc1ccc(-c2ccc(/C=N/n3c(COc4ccc(Cl)cc4Cl)n[nH]c3=S)o2)c([N+](=O)[O-])c1
label.class: false
--
compound: C[C@H](Nc1ncnc2nc[nH]c12)c1cc2cccc(Cl)c2c(=O)n1-c1ccccc1
label.class: false
--
compound: CCN(Cc1ccc(F)c(F)c1)c1ccc(CO)c(Cl)c1
label.class: false
--
compound: CC1SC(c2c(Cl)cccc2Cl)N(NC(=O)c2[nH]c3ccc(F)cc3c2-c2ccccc2)C1=O (stereo unspecified)
label.class: false
--
compound: CN(CCCN)CCCNc1nc2ccccc2c2[nH]c3ccccc3c12
label.class: true
--
compound: CNC(=O)n1ccc2cc(Oc3ccnc(NC(=O)c4ccc(C5CCN(CCO)CC5)cc4)c3)c(OCCOC)cc21
label.class: false
--
compound: O=CNc1c(Cl)cc2c(c1Cl)Cc1cc([N+](=O)[O-])ccc1-2
label.class: false
--
compound: Cc1ccncc1.[O]=[Ge].[O]=[Ge].[O]=[Ge].[O]=[Ge].[O]=[Ge].[O]=[Ge][OH].[O]=[Ge][OH]
label.class: false
--
compound: CCCCCn1c(=N)n(CC(O)COc2cccc(C)c2)c2ccccc21 (stereo unspecified)
label.class: false
--
compound: COc1cc(Cl)cc(-c2nn(C(=O)NCCN3CCOCC3)cc2-c2ccncc2)c1
label.class: false
--
compound: CCCC[C@H](NC(=O)[C@H]1CCCN1C)C(=O)N(C)[C@H](C[C@@H](OC(C)=O)c1nc(C(=O)N[C@@H](Cc2ccccc2)C[C@H](C)C(=O)OCC)cs1)C(C)C
label.class: true
--
compound: O=C1OC(=O)C(c2c[nH]c3ccccc23)=C1c1c[nH]c2ccccc12
label.class: false
--
compound: CCCCN1CCN(c2ccc3nc(-c4ccc5nc(-c6ccc(C(F)(F)F)cc6)[nH]c5c4)[nH]c3c2)CC1
label.class: false
--
compound: Nc1c(C(=O)Nc2cccc([N+](=O)[O-])c2)sc2nc3c(cc12)C(O)CCC3 (stereo unspecified)
label.class: false
--
compound: CCN(CC)c1ccc(C(=C2C=CC(=[N+](CC)Cc3cccc(S(=O)(=O)O)c3)C=C2)c2ccc(N(CC)Cc3cccc(S(=O)(=O)O)c3)cc2)cc1
label.class: false
